# measured-on: T1, human kallikrein-2 (hK2) (human, UniProt P20151 25-261)
# T1 construct: The mature protein is said to be underlined, but the underlining is not recoverable from the text; In the assay hK2 was amine-coupled to a CM4 chip; also called human glandular kallikrein 2; antigen hK2
# method: SPR, Biacore 3000, hK2 amine-coupled on CM4 chip, channel fc2, 50 nM antibody, 480 min dissociation
value-type: koff

| binder | value-type | recorded-result |
| --- | --- | --- |
| humanised 11B6 antibody (h11B6), IgG1/kappa (antibody, V domains shown, Expressed transiently in HEK293 cells; also called h1186) VH: QVQLQESGPGLVKPSDTLSLTCAVSGNSITSDYAWNWIRQPPGKGLEWIGYISYSGSTTYNPSLKSRVTMSRDTSKNQFSLKLSSVTAVDTAVYYCATGYYYGSGFWGQGTLVTVSS VL: DIVLTQSPDSLAVSLGERATINCKASESVEYFGTSLMHWYQQKPGQPPKLLIYAASNRESGVPDRFSGSGSGTDFTLTISSLQAEDVAVYYCQQTRKVPYTFGQGTKLEIKR | koff | 6.4e-05 s⁻¹ |
| murine 11B6 antibody (m11B6), parent murine anti-hK2 monoclonal antibody (antibody, mouse IgG1, kappa, V domains shown, Whole murine IgG obtained from the University of Turku; also called mAb 11B6; ml 1B6) VH: DVQLQESGPGLVKPSQSLSLTCTVTGNSITSDYAWNWIRQFPGNRLEWMGYISYSGSTTYSPSLKSRFSITRDTSKNQFFLQLNSVTPEDTATYFCATGYYYGSGFWGQGTLVTVSS VL: DIVLTQSPASLAVSLGQRATISCRASESVEYFGTSLMHWYRQKPGQPPKLLIYAASNVESGVPARFSGSGSGTDFSLNIQPVEEDDFSMYFCQQTRKVPYTFGGGTKLEIKR | koff | 1.9e-05 s⁻¹ |
| h11B6-DTPA (humanised 11B6 conjugated with DTPA chelator) (antibody, V domains shown, DTPA chelator coupled; residues and chain not stated, This is the h11B6 IgG1/kappa carrying a chelator; also called h1166-DTPA; H1166-DTPA) VH: QVQLQESGPGLVKPSDTLSLTCAVSGNSITSDYAWNWIRQPPGKGLEWIGYISYSGSTTYNPSLKSRVTMSRDTSKNQFSLKLSSVTAVDTAVYYCATGYYYGSGFWGQGTLVTVSS VL: DIVLTQSPDSLAVSLGERATINCKASESVEYFGTSLMHWYQQKPGQPPKLLIYAASNRESGVPDRFSGSGSGTDFTLTISSLQAEDVAVYYCQQTRKVPYTFGQGTKLEIKR | koff | 6.3e-05 s⁻¹ |
| h11B6-DFO (humanised 11B6 conjugated with deferoxamine) (antibody, human IgG1, kappa, V domains shown, DFO (deferoxamine) chelator coupled; residues and chain not stated, This is the h11B6 IgG1/kappa carrying DFO; also called h1166-DFO; DFO-h11B6) VH: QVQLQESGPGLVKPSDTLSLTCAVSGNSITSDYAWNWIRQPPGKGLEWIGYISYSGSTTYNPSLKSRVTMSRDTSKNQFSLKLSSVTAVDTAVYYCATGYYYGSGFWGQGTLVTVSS VL: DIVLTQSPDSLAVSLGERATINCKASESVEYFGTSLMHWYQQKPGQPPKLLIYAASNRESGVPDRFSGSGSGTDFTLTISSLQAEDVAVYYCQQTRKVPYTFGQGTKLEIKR | koff | 5.8e-05 s⁻¹ |
